target: recombinant APOL1 G2 (Homo sapiens, UniProt O14791, DEL388-389); experiment: Trypanosome
property name: EC50 (nM)
Report as a plain number; the unit nM is understood.

Entry O=C(CCc1c(-c2ccc(F)cc2)[nH]c2c(F)cc(F)cc12)N[C@@H]1C(=O)NC[C@H]1O [VX-147] , EC50 reported as 1.2

====

Biological target: APOL1 G2 (Homo sapiens, UniProt O14791, DEL388-389/M228I/R255K)
Sequence (O14791 with tags, fused parts or gaps M228I/R255K/DEL388-389): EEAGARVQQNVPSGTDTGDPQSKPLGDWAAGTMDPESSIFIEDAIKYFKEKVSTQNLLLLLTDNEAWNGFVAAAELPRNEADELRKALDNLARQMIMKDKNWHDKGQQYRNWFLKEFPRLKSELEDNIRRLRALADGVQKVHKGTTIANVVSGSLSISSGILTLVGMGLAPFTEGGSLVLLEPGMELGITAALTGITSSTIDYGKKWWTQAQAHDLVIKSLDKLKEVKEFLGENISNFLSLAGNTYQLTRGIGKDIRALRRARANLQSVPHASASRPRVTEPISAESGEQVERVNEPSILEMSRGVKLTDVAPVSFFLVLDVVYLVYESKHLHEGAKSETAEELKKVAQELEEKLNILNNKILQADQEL
Test: Thallium flux assay, tet-inducible HEK293 APOL1 G2
Format: cell-based
Quick list: IC50 per entry.
Report as a plain number; the unit nM is understood.

Cc1cc(F)cc2c(CCC(=O)N[C@@H]3C(=O)NC[C@H]3O)c(-c3ccc(F)cc3)[nH]c12 5.4

Now consider a different compound.
Entry O=C(CCc1c(-c2ccc(F)cc2)[nH]c2c(F)cc(F)cc12)N[C@@H]1C(=O)NC[C@H]1O , IC50 reported as 1.2

From: paper PMC11696124
